From: ChEMBL document CHEMBL4513216

Assay: Toxicity liver stage against HepG2, at 10uM
Assay type: cell-based
Set-up: test concentration 10 uM, cell line HepG2-A16-CD81EGFP
Conditions: human, HepG2-A16-CD81EGFP cells; read-out: INHIBITION
We begin with a simple list: items and their reported cytotoxicity at 10 µM.
VALUE_TYPE: cytotoxicity at 10 µM (%)

>>> print(df.to_string())
                                    compound  value_unit  observed_value
 0  Cc1cc(CN2CCC(CNC(=O)c3ccc(C#N)cc3)C2)[nH]n1 (stereo unspecified)           %            -138
 1  Cc1nccn1-c1cccc(C2CCCN(C(=O)c3cc[nH]n3)C2)n1 (stereo unspecified)           %           0.481
 2  Cc1cc(C)c(CNC(=O)NCC2CCCO2)c(=O)[nH]1 (stereo unspecified)           %           -3.76
 3  CCn1c(C)nnc1CN(C)C1CCN(CCCSC)C1 (stereo unspecified)           %           -6.21
 4  NC(=O)c1ccc(C(=O)N2CCCC(n3ccnc3)C2)s1 (stereo unspecified)           %           -20.5
 5  CNC(=O)C(C)NC(=O)c1cc(COc2ccc(OC)cc2Cl)[nH]n1 (stereo unspecified)           %            5.27
 6  Cc1nn(-c2ncccn2)c2c1C(c1cnn(C)c1)SCC(=O)N2 (stereo unspecified)           %             -45
 7  O=C(CCCN1CCCCC1)N1CCN(C(=O)c2ccc[nH]2)CC1           %            57.8
 8  CC(C)c1nc(CN2CCN(CC(O)c3ccccc3)CC2)no1 (stereo unspecified)           %            -3.6
 9     O=C(NCCNC(=O)c1ccc(Br)cc1)c1ccc(O)cc1           %          -0.988
10  CN(Cc1noc(C2CC2)n1)C1CCN(Cc2ncc[nH]2)C1 (stereo unspecified)           %           -1.87
